- System: Human immunodeficiency virus 1
- protocol.summary: Antiviral activity against HIV1 3B infected in human MT4 cells assessed as inhibition of virus-induced cytopathic effect after 5 days by MTT assay in absence of human serum
- Type: functional, organism-based
- test.conditions: Human immunodeficiency virus 1, 3B, MT4, 120 h
Documented EC50 across a set of compounds
The reply should contain only the number, in nM.

# example entries with known answers
1. Cc1cc(N)cc(C)c1OCC(=O)N[C@@H](Cc1ccccc1)[C@H](O)C(=O)N1CSC(C)(C)[C@H]1C(=O)NC/C=C\CO : 184
2. Cc1cc(N)cc(C)c1OCC(=O)N[C@@H](Cc1ccccc1)[C@H](O)C(=O)N1CSC(C)(C)[C@H]1C(=O)NC(C)(C)C : 132
3. Cc1ccccc1CNC(=O)[C@H]1N(C(=O)[C@@H](O)[C@H](Cc2ccccc2)NC(=O)COc2c(C)cc(N)cc2C)CSC1(C)C : 83
4. Cc1cc(N)cc(C)c1OCC(=O)N[C@@H](Cc1ccccc1)[C@H](O)C(=O)N1CSC(C)(C)[C@H]1C(=O)N[C@H]1CCc2ccccc21 : 32

Prompt: May I ask what EC50 has been recorded for CNc1cc(C)c(OCC(=O)N[C@@H](Cc2ccccc2)[C@H](O)C(=O)N2CSC(C)(C)[C@H]2C(=O)NCc2ccccc2C)c(C)c1 ?
Completion: 191

====

- Tested on: Human immunodeficiency virus 1
- protocol.summary: Antiviral activity against HIV1 pNL4-3 infected in human MT4 cells assessed as inhibition of virus-induced cytopathic effect after 5 days by MTT assay in absence of human serum
- Assay type: functional, organism-based
- test.conditions: Human immunodeficiency virus 1, pNL4-3, MT4, 120 h
observed.property: EC50 (nM)
Value expressed in nM; do not type the unit.

Prompt: // EC50 lookup, key: C=C(C)CNC(=O)[C@H]1N(C(=O)[C@@H](O)[C@H](Cc2ccccc2)NC(=O)COc2c(C)cc(N)cc2C)CSC1(C)C
Completion: 10

====

- test.target: Protease (Human immunodeficiency virus 1) (UniProt Q9YQ12)
- Sequence (Q9YQ12 as listed by the source): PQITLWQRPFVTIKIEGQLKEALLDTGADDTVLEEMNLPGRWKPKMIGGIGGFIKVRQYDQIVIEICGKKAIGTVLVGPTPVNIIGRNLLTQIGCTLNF
- protocol.summary: Inhibition of HIV1 recombinant protease at 1 nM after 3 hrs by fluorescence assay
Reported inhibition is given for each of the following compounds.
Report as a plain number; the unit % is understood.

1) Cc1c(O)cccc1C(=O)N[C@@H](Cc1ccccc1)[C@H](O)C(=O)N1CSC(C)(C)[C@H]1C(=O)NCc1c(F)cccc1F : 24

Prompt: API: value(readout=inhibition, system=Protease (Human immunodeficiency virus 1) (UniProt Q9YQ12)) for record C=C(C)CNC(=O)[C@H]1N(C(=O)[C@@H](O)[C@H](Cc2ccccc2)NC(=O)COc2c(C)cc(N)cc2C)CSC1(C)C
Completion: 43

====

Catalogue of compounds with associated pEC50
- Test system: Human immunodeficiency virus 1
- protocol.summary: Antiviral activity against HIV1 3B infected in human MT4 cells assessed as inhibition of virus-induced cytopathic effect after 5 days by MTT assay
- Type: functional, organism-based
- test.conditions: Human immunodeficiency virus 1, 3B, MT4, 120 h
Would you please state pEC50, meaning minus log10 of the concentration in mol/L, as a bare number?

Below, 2 compounds whose answers are already recorded.
1. Cc1c(O)cccc1C(=O)N[C@@H](Cc1ccccc1)[C@H](O)C(=O)N1CSC(C)(C)[C@H]1C(=O)NC(C)(C)c1ccccc1 : 6.91
2. Cc1c(O)cccc1C(=O)N[C@@H](Cc1ccccc1)[C@H](O)C(=O)N1CSC(C)(C)[C@H]1C(=O)NC1CCC1 : 6.92

Prompt: Item Cc1c(O)cccc1C(=O)N[C@@H](Cc1ccccc1)[C@H](O)C(=O)N1CSC(C)(C)[C@H]1C(=O)NC1CCCCCC1 has what recorded pEC50?
Completion: 6.48

Prompt: // query pEC50 value for entry Cc1c(O)cccc1C(=O)N[C@@H](Cc1ccccc1)[C@H](O)C(=O)N1CSC(C)(C)[C@H]1C(=O)NCc1c(F)cccc1Cl
Completion: 7.49

Prompt: Need pEC50, item Cc1c(O)cccc1C(=O)N[C@@H](Cc1ccccc1)[C@H](O)C(=O)N1CSC(C)(C)[C@H]1C(=O)NC/C=C\CO
Completion: 5.92

Prompt: Can you share its pEC50? I mean this compound: Cc1c(O)cccc1C(=O)N[C@@H](Cc1ccccc1)[C@H](O)C(=O)N1CSC(C)(C)[C@H]1C(=O)N[C@@H]1CCc2ccccc21
Completion: 6.45

Prompt: Name the recorded pEC50 for Cc1ccccc1CNC(=O)[C@H]1N(C(=O)[C@@H](O)[C@H](Cc2ccccc2)NC(=O)c2cccc(O)c2C)CSC1(C)C .
Completion: 7.48

Prompt: Would you mind telling me what pEC50 value was observed for CCNC(=O)[C@H]1N(C(=O)[C@@H](O)[C@H](Cc2ccccc2)NC(=O)c2cccc(O)c2C)CSC1(C)C ?
Completion: 6.74

Prompt: // lookup pEC50 for Cc1cccc(C)c1OCC(=O)N[C@@H](Cc1ccccc1)[C@@H](O)C[C@H](Cc1ccccc1)NC(=O)[C@H](C(C)C)N1CCCNC1=O
Completion: 7.52

====

- test.target: Protease (Human immunodeficiency virus 1) (UniProt Q9YQ12)
- protocol.summary: Inhibition of HIV1 recombinant protease at 1 nM after 3 hrs by fluorescence assay
The following molecules are listed with their measured inhibition values.
Please state the figure in %; there is no need to write the unit.

Example cases with answers are listed next.
1) Cc1cccc(C)c1CNC(=O)[C@H]1N(C(=O)[C@@H](O)[C@H](Cc2ccccc2)NC(=O)c2cccc(O)c2C)CSC1(C)C : 82
2) Cc1c(O)cccc1C(=O)N[C@@H](Cc1ccccc1)[C@H](O)C(=O)N1CSC(C)(C)[C@H]1C(=O)NCc1c(Cl)cccc1Cl : 66

Prompt: Request the reported inhibition associated with Cc1c(O)cccc1C(=O)N[C@@H](Cc1ccccc1)[C@H](O)C(=O)N1CSC(C)(C)[C@H]1C(=O)NCc1c(F)cccc1Cl
Completion: 50

Prompt: Looking for the measured inhibition of Cc1c(O)cccc1CNC(=O)[C@H]1N(C(=O)[C@@H](O)[C@H](Cc2ccccc2)NC(=O)c2cccc(O)c2C)CSC1(C)C , can you help?
Completion: 41

Prompt: Please report the recorded inhibition for Cc1c(F)cccc1CNC(=O)[C@H]1N(C(=O)[C@@H](O)[C@H](Cc2ccccc2)NC(=O)c2cccc(O)c2C)CSC1(C)C .
Completion: 53

====

- System: Human immunodeficiency virus 1
- protocol.summary: Antiviral activity against HIV1 3B infected in human MT4 cells assessed as inhibition of virus-induced cytopathic effect after 5 days by MTT assay
- Assay type: functional, organism-based
- test.conditions: Human immunodeficiency virus 1, 3B, MT4, 120 h
pEC50: −log10 of the molar value.
Decide using pEC50: a value greater than or equal to 7 is met, a smaller one is not met.

1. Cc1c(O)cccc1C(=O)N[C@@H](Cc1ccccc1)[C@H](O)C(=O)N1CSC(C)(C)[C@H]1C(=O)NCc1c(F)cccc1F : met
2. Cc1c(O)cccc1C(=O)N[C@@H](Cc1ccccc1)[C@H](O)C(=O)N1CSC(C)(C)[C@H]1C(=O)N[C@@H]1c2ccccc2C[C@@H]1O : not met
3. Cc1c(O)cccc1C(=O)N[C@@H](Cc1ccccc1)[C@H](O)C(=O)N1CSC(C)(C)[C@H]1C(=O)N[C@H](C)c1ccccc1 : not met
4. Cc1c(O)cccc1C(=O)N[C@@H](Cc1ccccc1)[C@H](O)C(=O)N1CSC(C)(C)[C@H]1C(=O)NCc1c(Cl)cccc1Cl : met
5. Cc1c(F)cccc1CNC(=O)[C@H]1N(C(=O)[C@@H](O)[C@H](Cc2ccccc2)NC(=O)c2cccc(O)c2C)CSC1(C)C : met
6. Cc1c(O)cccc1C(=O)N[C@@H](Cc1ccccc1)[C@H](O)C(=O)N1CSC(C)(C)[C@H]1C(=O)NC1CCCCC1 : not met

We now examine a further compound.
Prompt: Record Cc1cccc(Cl)c1CNC(=O)[C@H]1N(C(=O)[C@@H](O)[C@H](Cc2ccccc2)NC(=O)c2cccc(O)c2C)CSC1(C)C ; criterion: pEC50 no lower than 7. Met?
Completion: met

====

- System: Human immunodeficiency virus 1
- protocol.summary: Antiviral activity against HIV1 3B infected in human MT4 cells assessed as inhibition of virus-induced cytopathic effect after 5 days by MTT assay
- Type: functional, organism-based
- test.conditions: Human immunodeficiency virus 1, 3B, MT4, 120 h
observed.property: pEC50
Would you please state pEC50, meaning minus log10 of the concentration in mol/L, as a bare number?

These recorded examples may help you get a feel for the data.
1) C=CCNC(=O)[C@H]1N(C(=O)[C@@H](O)[C@H](Cc2ccccc2)NC(=O)c2cccc(O)c2C)CSC1(C)C : 6.91
2) Cc1c(O)cccc1C(=O)N[C@@H](Cc1ccccc1)[C@H](O)C(=O)N1CSC(C)(C)[C@H]1C(=O)N[C@@H](C)c1ccccc1 : 7.10
3) C#CCNC(=O)[C@H]1N(C(=O)[C@@H](O)[C@H](Cc2ccccc2)NC(=O)c2cccc(O)c2C)CSC1(C)C : 6.96
4) Cc1c(O)cccc1C(=O)N[C@@H](Cc1ccccc1)[C@H](O)C(=O)N1CSC(C)(C)[C@H]1C(=O)N[C@H]1c2ccccc2C[C@H]1O : 7.00
5) CCCNC(=O)[C@H]1N(C(=O)[C@@H](O)[C@H](Cc2ccccc2)NC(=O)c2cccc(O)c2C)CSC1(C)C : 7.04

Turning to the following molecule.
Prompt: // returns reported pEC50 for input Cc1c(O)cccc1C(=O)N[C@@H](Cc1ccccc1)[C@H](O)C(=O)N1CSC(C)(C)[C@H]1C(=O)N[C@H]1CCc2ccccc21
Completion: 7.14
